- tested.target: T1, mαvβ5 (Mus musculus, UniProt O70309+P43406)
- T1 construct: The full extracellular domains for all α and β integrin subunits; (GGGS)3 linker (C); acidic coiled-coil with cysteine (C); GG-Avitag (C); hexa-histidine tag (C); basic coiled-coil with cysteine (C); made in house; host or cells: Expi293 cells
- T1 sequence (P43406 31-988 limits assumed): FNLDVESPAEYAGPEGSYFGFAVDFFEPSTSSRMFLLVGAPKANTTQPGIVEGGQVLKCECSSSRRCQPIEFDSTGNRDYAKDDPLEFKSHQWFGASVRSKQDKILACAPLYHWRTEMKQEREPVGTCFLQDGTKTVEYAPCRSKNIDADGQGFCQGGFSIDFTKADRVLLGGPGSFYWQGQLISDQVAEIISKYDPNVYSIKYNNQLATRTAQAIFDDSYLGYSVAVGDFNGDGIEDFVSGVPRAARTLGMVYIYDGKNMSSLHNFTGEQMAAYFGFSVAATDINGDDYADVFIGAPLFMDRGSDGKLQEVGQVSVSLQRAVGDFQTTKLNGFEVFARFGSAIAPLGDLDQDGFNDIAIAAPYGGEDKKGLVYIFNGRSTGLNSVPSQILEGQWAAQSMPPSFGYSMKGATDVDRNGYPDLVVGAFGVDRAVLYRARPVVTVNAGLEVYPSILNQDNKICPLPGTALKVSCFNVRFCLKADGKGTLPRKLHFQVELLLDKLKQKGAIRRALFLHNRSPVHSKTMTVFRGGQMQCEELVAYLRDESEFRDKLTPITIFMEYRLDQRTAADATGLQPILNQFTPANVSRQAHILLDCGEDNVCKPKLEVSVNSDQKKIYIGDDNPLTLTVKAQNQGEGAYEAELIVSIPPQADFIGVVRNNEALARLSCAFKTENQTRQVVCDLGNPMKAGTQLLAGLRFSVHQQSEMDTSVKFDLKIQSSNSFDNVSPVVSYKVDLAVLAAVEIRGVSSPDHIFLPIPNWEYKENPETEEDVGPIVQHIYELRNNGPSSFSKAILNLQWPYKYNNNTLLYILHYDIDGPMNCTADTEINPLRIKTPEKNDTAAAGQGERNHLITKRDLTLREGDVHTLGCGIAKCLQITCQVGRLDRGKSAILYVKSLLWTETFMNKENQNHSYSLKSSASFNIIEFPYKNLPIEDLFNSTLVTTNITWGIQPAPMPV
- T1 sequence (O70309 24-719 limits assumed): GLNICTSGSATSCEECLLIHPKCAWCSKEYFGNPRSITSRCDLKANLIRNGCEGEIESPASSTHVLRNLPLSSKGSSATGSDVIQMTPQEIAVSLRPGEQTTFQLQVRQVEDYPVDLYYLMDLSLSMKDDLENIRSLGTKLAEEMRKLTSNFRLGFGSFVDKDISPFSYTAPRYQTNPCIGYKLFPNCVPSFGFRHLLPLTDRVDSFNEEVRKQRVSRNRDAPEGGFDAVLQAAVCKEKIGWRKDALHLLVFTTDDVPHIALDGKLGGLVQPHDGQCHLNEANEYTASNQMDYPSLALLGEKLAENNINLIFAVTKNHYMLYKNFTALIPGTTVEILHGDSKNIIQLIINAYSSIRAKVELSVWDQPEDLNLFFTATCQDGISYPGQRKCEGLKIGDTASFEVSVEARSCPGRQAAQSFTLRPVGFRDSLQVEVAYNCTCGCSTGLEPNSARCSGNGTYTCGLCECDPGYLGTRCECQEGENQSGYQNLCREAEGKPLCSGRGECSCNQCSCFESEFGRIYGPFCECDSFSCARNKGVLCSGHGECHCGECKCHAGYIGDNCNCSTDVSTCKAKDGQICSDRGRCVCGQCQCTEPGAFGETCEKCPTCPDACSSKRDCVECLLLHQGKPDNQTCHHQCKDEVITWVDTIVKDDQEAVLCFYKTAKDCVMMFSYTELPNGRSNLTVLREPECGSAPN
- assay.notes: Mouse AlphaLISA integrin-ligand blocking assay (vitronectin)
- Format: biochemical
- experimental.setup: Table 12; read-out: IC50 Mouse integrin AlphaLISA assays mαvβ5
pIC50: −log10 of the molar value.
Each entry below carries its recorded pIC50.
recorded.metric: pIC50

molecule: Ab-32: integrin binder antibody, VH SEQ ID NO: 37, VL SEQ ID NO: 38 (antibody, V domains shown) VH: EVQLQESGPGLVKPSETLSLTCAVSGYSISSGYYWGWIRQPPGKGLEWIGSIYHSGNTYYNPSLKSRVTISVDTSKNQFSLKLSSVTAADTAVYYCARVPRYSRGDAYYYYGMDVWGQGTTVTVSS VL: EIVLTQSPGTLSLSPGERATLSCRASQSVRSSYLAWYQQKPGQAPRLLIYGASSRATGIPDRFSGSGSGTDFTLTISRLEPEDFAVYYCQQAGLVFTFGGGTKVEIK
recorded.metric: pIC50
result: < 6.60
--
molecule: mAb-24: control antibody abituzumab; 17E6, a therapeutic pan-αv integrin antibody (antibody, chains of the INN, looked up, V domains shown) VH: QVQLQQSGGELAKPGASVKVSCKASGYTFSSFWMHWVRQAPGQGLEWIGYINPRSGYTEYNEIFRDKATMTTDTSTSTAYMELSSLRSEDTAVYYCASFLGRGAMDYWGQGTTVTVSS VL: DIQMTQSPSSLSASVGDRVTITCRASQDISNYLAWYQQKPGKAPKLLIYYTSKIHSGVPSRFSGSGSGTDYTFTISSLQPEDIATYYCQQGNTFPYTFGQGTKVEIK
recorded.metric: pIC50
result: < 6.60
